# assay notes: total protein half-life in vivo (active degradation + dilution); higher = more stable protein
# condition: wild type E. coli NCM3722; growth: N-lim chemostat; doubling time 6 h
readout: total protein half-life in vivo (h)
Your answer should be a plain number; it is taken to be in h.

MATTHLDVCAVVPAAGFGRRMQTECPKQYLSIGNQTILEHSVHALLAHPRVKRVVIAISPGDSRFAQLPLANHPQITVVDGGDERADSVLAGLKAAGDAQWVLVHDAARPCLHQDDLARLLALSETSRTGGILAAPVRDTMKRAEPGKNAIAHTVDRNGLWHALTPQFFPRELLHDCLTRALNEGATITDEASALEYCGFHPQLVEGRADNIKVTRPEDLALAEFYLTRTIHQENT: 5.66

QUERY: Quick one: total protein half-life in vivo for `MNDAIPRPQAKTRKALTPLLEIRNLTKSYDGQHAVDDVSLTIYKGEIFALLGASGCGKSTLLRMLAGFEQPSAGQIMLDGVDLSQVPPYLRPINMMFQSYALFPHMTVEQNIAFGLKQDKLPKAEIASRVNEMLGLVHMQEFAKRKPHQLSGGQRQRVALARSLAKRPKLLLLDEPMGALDKKLRDRMQLEVVDILERVGVTCVMVTHDQEEAMTMAGRIAIMNRGKFVQIGEPEEIYEHPTTRYSAEFIGSVNVFEGVLKERQEDGLVLDSPGLVHPLKVDADASVVDNVPVHVALRPEKIMLCEEPPANGCNFAVGEVIHIAYLGDLSVYHVRLKSGQMISAQLQNAHRHRKGLPTWGDEVRLCWEVDSCVVLTV` ?
RESULT: 5.64

QUERY: What would you report for MTMSLEVFEKLEAKVQQAIDTITLLQMEIEELKEKNNSLSQEVQNAQHQREELERENNHLKEQQNGWQERLQALLGRMEEV [P0AF36] ?
RESULT: 2.88

###

# assay notes: total protein half-life in vivo (active degradation + dilution); higher = more stable protein
# condition: wild type E. coli NCM3722; growth: C-lim chemostat; doubling time 3 h
total protein half-life in vivo listing for selected sequences.

Check out these entries, answers already filled in.
MKFKTNKLSLNLVLASSLLAASIPAFAVTGDTDQPIHIESDQQSLDMQGNVVTFTGNVIVTQGTIKINADKVVVTRPGGEQGKEVIDGYGKPATFYQMQDNGKPVEGHASQMHYELAKDFVVLTGNAYLQQVDSNIKGDKITYLVKEQKMQAFSDKGKRVTTVLVPSQLQDKNNKGQTPAQKKGN [P0ADV1]: 3.06 h
MKKNQFLKESDVTAESVFFMKRRQVLKALGISATALSLPHAAHADLLSWFKGNDRPPAPAGKALEFSKPAAWQNNLPLTPADKVSGYNNFYEFGLDKADPAANAGSLKTDPWTLKISGEVAKPLTLDHDDLTRRFPLEERIYRMRCVEAWSMVVPWIGFPLHKLLALAEPTSNAKYVAFETIYAPEQMPGQQDRFIGGGLKYPYVEGLRLDEAMHPLTLMTVGVYGKALPPQNGAPVRLIVPWKYGFKGIKSIVSIKLTRERPPTTWNLAAPDEYGFYANVNPYVDHPRWSQATERFIGSGGILDVQRQPTLLFNGYAAQVASLYRGLDLRENF: 2.98 h
MKLRDSLAENKSIRLQAEAETWQEAVKIGVDLLVAADVVEPRYYQAILDGVEQFGPYFVIAPGLAMPHGRPEEGVKKTGFSLVTLKKPLEFNHDDNDPVDILITMAAVDANTHQEVGIMQIVNLFEDEENFDRLRACRTEQEVLDLIDRTNAAA: 3.32 h
MQEIMQFVGRHPILSIAWIALLVAVLVTTFKSLTSKVKVITRGEATRLINKEDAVVVDLRQRDDFRKGHIAGSINLLPSEIKANNVGELEKHKDKPVIVVDGSGMQCQEPANALTKAGFAQVFVLKEGVAGWAGENLPLVRGK [P0AG27]: 3.71 h
MAKHLFTSESVSEGHPDKIADQISDAVLDAILEQDPKARVACETYVKTGMVLVGGEITTSAWVDIEEITRNTVREIGYVHSDMGFDANSCAVLSAIGKQSPDINQGVDRADPLEQGAGDQGLMFGYATNETDVLMPAPITYAHRLVQRQAEVRKNGTLPWLRPDAKSQVTFQYDDGKIVGIDAVVLSTQHSEEIDQKSLQEAVMEEIIKPILPAEWLTSATKFFINPTGRFVIGGPMGDCGLTGRKIIVDTYGGMARHGGGAFSGKDPSKVDRSAAYAARYVAKNIVAAGLADRCEIQVSYAIGVAEPTSIMVETFGTEKVPSEQLTLLVREFFDLRPYGLIQMLDLLHPIYKETAAYGHFGREHFPWEKTDKAQLLRDAAGLK [P0A817]: 2.97 h

# next sequence below
QUERY: Quick one: total protein half-life in vivo for MKKNRAFLKWAGGKYPLLDDIKRHLPKGECLVEPFVGAGSVFLNTDFSRYILADINSDLISLYNIVKMRTDEYVQAARELFVPETNCAEVYYQFREEFNKSQDPFRRAVLFLYLNRYGYNGLCRYNLRGEFNVPFGRYKKPYFPEAELYHFAEKAQNAFFYCESYADSMARADDASVVYCDPPYAPLSATANFTAYHTNSFTLEQQAHLAEIAEGLVERHIPVLISNHDTMLTREWYQRAKLHVVKVRRSISSNGGTRKKVDELLALYKPGVVSPAKK [P0AEE8] ?
RESULT: 2.94 h
